Values from PubChem BioAssay (NCI)

System: SK-MEL-2 melanoma
Test: NCI-60 one-dose screen, 48 h (100 = growth as untreated, 0 = no growth, -100 = all killed)
Details: 10 µM unless noted
Procedure: Growth inhibition of the SK-MEL-2 human tumor cell line is measured as a screen for anti-cancer activity. Cells are grown in 96 well plates and exposed to the test compound for 48 hours. Compounds are tested at a single concentration, which is 10^-5 M for most compounds. The reported endpoint is percent growth (GI% or GIPRCNT), where numbers from 0 - 100% represent growth inhibition, and numbers from -100% - 0 represent cell death. For example, a value of 40 represents 60% growth inhibition. […]
The panel holds about 83,000 compounds, 20% with a hit somewhere; the sample as a whole holds those more often. Active and inactive are the calls of the source. How the source made its calls: active means growth percent below 10; inactive means the rest.
EXPERIMENTAL_READOUT: growth

{"COMPOUND": "COc1ccc(C(c2ccc(OC)cc2)C(Cl)(Cl)Cl)cc1", "growth": "77.4% (inactive)"}
{"COMPOUND": "N#CC1c2ccccc2C=CN1C(=O)c1ccc(N(CCCl)CCCl)cc1 (configuration not stated)", "growth": "104% (inactive)"}
{"COMPOUND": "COc1ccc(-c2ccc(OC)c(OC)c2OC)cc1", "growth": "24% (inactive)"}
{"COMPOUND": "NC(Cc1ccc2c(c1)OCO2)c1ccc2c(c1)OCO2 (configuration not stated)", "growth": "107% (inactive)"}
{"COMPOUND": "C/C(=C\\C(=O)O[C@H]1[C@@H]2[C@H](C)CC[C@H]2[C@]2(C)O[C@@]1(C1CCCCC1)C[C@H]2OC(=O)CO)c1ccccc1", "growth": "55.8% (inactive)"}
{"COMPOUND": "CNC(=O)Oc1cccc(OC)c1", "growth": "89.8% (inactive)"}

Take each entry in turn and give its growth.
1. CC1(C)N=C(N)N=C(N)N1c1ccc(OCCCCOc2ccc(S(=O)(=O)F)cc2)c(Cl)c1
2. CCC(CO)NC1CCCCC1 (configuration not stated)
3. CCC(CC)(c1ccccc1)C(OC(N)=O)c1ccccc1 (configuration not stated)
4. Cc1cc(NC(=O)/C=C/c2ccc([N+](=O)[O-])cc2)ccc1S(=O)(=O)F
5. O=C(C(=O)N1CCCC1)c1cn(CCCCCn2cc(C(=O)C(=O)N3CCCC3)c3ccccc32)c2ccccc12

Reply:
1. 38.6% (inactive)
2. 81.2% (inactive)
3. 79.2% (inactive)
4. 107% (inactive)
5. 114% (inactive)

----------
Please go through the items and note down their growth.
test system: HL-60(TB) leukemia; experiment: NCI-60 one-dose screen, 48 h (100 = growth as untreated, 0 = no growth, -100 = all killed); conditions: 10 µM unless noted
Compounds without any hit were thinned out: in the full panel of roughly 83,000, 20% have a hit.
Answers are plain numbers, in %.

{"MOLECULE": "COc1ccc(-c2cc(-c3ccc(Cl)cc3)c(C#N)c(=O)n2Cc2ccc(C(=O)Nc3ccccc3N)cc2)cc1", "growth / %": 84.7}
{"MOLECULE": "N#Cc1nc(-c2ccc(Cl)cc2)cc(-c2ccc(Nc3nc(N4CCCCC4)nc(N4CCCCC4)n3)cc2)c1N", "growth / %": 99.2}
{"MOLECULE": "O=C1NC2(CCNCC2)Nc2ccccc21", "growth / %": 95.6}
{"MOLECULE": "COc1cc(/C=C/c2cc(/C=C/c3ccc(O)c(OC)c3)[nH]c(=O)n2)ccc1O", "growth / %": 61.3}
{"MOLECULE": "O=C(Nc1ccc(OCc2nnc(-c3ccc(Cl)cc3)o2)c(F)c1)Nc1ccc(Cl)c(Cl)c1", "growth / %": 95.5}

Take each entry in turn and give its growth.
1. CCOC(=O)c1c(C)nc2ccccc2c1/C=C/c1ccc(OC)cc1
2. COc1ccc(N2C(=O)C(Oc3ccccc3)C2c2ccc(C)cc2)cc1 (stereo not drawn)
3. COc1ccc(/C=C2\COc3ccc(O)c(O)c3C2=O)cc1OC

Reply:
[83.3, 85.4, -28.7]
